system: MCF7; assay: Antiproliferative activity against human MCF7 cells assessed as cell viability after 72 hrs by MTT assay; type: functional, cell-based; conditions: MCF7, 72 h
pIC50: −log10 of the molar value.
Measured Property: pIC50

Recorded results for 2 compounds are shown here.
Compound	pIC50
CO[C@H]1N(C(=O)OC(C)(C)C)c2ccccc2[C@@]12CN=C(Nc1ccc(Cl)cc1)S2 (racemic)	4.44
CO[C@@H]1N(OC)c2ccccc2[C@@]12CN=C(SC)S2 (racemic)	4.19

I = CNC1=NCc2c([nH]c3ccccc23)S1
II = CC(C)(C)OC(=O)n1cc(CNC(=S)NC2CCCCC2)c2ccccc21
In: I would appreciate it if you could say which entry, I or II , has the lower pIC50 value. Return value: the label identifying the chosen record.
Out: I
